FYI, the data here is from patent US20120316071A1.

Tested On: T1, Recombinant Human DLL4 (delta-like protein 4) (human, UniProt Q9NR61 27-524)
T1 construct: also called rHuman DLL4; Delta-like 4
Assay: ELISA, Fab on plate-coated DLL4
Quantity Measured: ELISA (Signal-Noise)

Inquiry: Reported ELISA (Signal-Noise), binder Fab VH5-51_IGHD5-18*01>3_IGHJ4*01 G100K/G104T G35V & V3-4_IGLJ1*01 (Fab, V domains shown, Fab from E. coli: VH-CH1 from Plasmid A with His6 and Flag tags, VL with lambda CL from Plasmid E; also called KT G35V) VH: EVQLVQSGAEVKKPGESLKISCKGSGYSFTSYWIVWVRQMPGKGLEWMGIIYPGDSDTRYSPSFQGQVTISADKSISTAYLQWSSLKASDTAMYYCARRKYSYTYDYFDYWGQGTLVTVSS VL: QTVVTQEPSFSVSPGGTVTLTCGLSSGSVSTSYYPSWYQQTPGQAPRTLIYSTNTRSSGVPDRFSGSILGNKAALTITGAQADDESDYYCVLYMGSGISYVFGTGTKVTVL : ____
Reply text: 0.09
